- Run Description: Metabolic stability in human liver microsomes assessed as intrinsic clearance at 10 uM by LC-MS/MS analysis
- Format: ADME, Microsome
- Condition Parameters: read-out: CLH
Measure Name: microsomal CLint at 10 µM (µL/min/mg)

Examples from the recorded data:
CO[C@H](C(=O)Nc1nnc(NC2CCN(c3nnc(NC(=O)CCc4cn(-c5ccc(C(F)(F)F)cc5)nn4)s3)CC2)s1)c1ccccc1 : 5.57
Cc1ccc(Cn2cc(CCC(=O)Nc3ccc(CCCCc4nnc(NC(=O)Cc5ccccn5)s4)nn3)nn2)cc1 : 40.2
O=C(Cc1ccccc1)Nc1nnc(NC2CCN(c3nnc(NC(=O)CCc4cn(Cc5ccc(C(F)(F)F)cc5)nn4)s3)CC2)s1 : 23.1

I. CO[C@H](C(=O)Nc1nnc(NC2CCN(c3nnc(NC(=O)CCc4cn(Cc5ccc(C(F)(F)F)cc5)nn4)s3)CC2)s1)c1ccccc1
II. O=C(Cc1ccccc1)Nc1nnc(NC2CCN(c3nnc(NC(=O)c4ccn(Cc5ccc(C(F)(F)F)cc5)n4)s3)CC2)s1
Thinking about recorded microsomal CLint at 10 µM values, which is higher, I or II ? When you have decided, please share the label of that item.
II
(II: 25.2 µL/min/mg, I: 9.21 µL/min/mg)

P. O=C(Cc1ccccc1)Nc1nnc(NC2CCN(c3nnc(NC(=O)c4nccn4Cc4ccc(C(F)(F)F)cc4)s3)CC2)s1
Q. CO[C@@H](C(=O)Nc1nnc(NC2CCN(c3nnc(NC(=O)CCc4cn(CC5=CC=C(C(F)(F)F)CC5)nn4)s3)CC2)s1)c1ccccc1
Thinking about recorded microsomal CLint at 10 µM values, which is higher, P or Q ? When you have decided, please share the label of that item.
Q

# credit: ChEMBL document CHEMBL5154870
